Hey, just so you know, these numbers are from ChEMBL document CHEMBL5442741.

target: Serine/threonine-protein kinase Chk1 (Homo sapiens); assay: Enzymatic radiometric [Km ATP] KinaseProfiler LeadHunter assay, kinase: CHK1, catalogue number: 14-346KP The assay has been performed by Eurofins Discovery.; conditions: ATP concentration 90.0 uM, Test compound concentration 10.0 uM
Below: a set of entries, each annotated with reported Activity.
Express it in %; write the number only.

Reference set (4 entries):
>  <substance.smiles>
CC(C)[C@H](Nc1ncnc2[nH]ccc12)c1ccc2c(c1)S(=O)(=O)CCC2

>  <measured.metric>
Activity

>  <reported.value>
110

$$$$
>  <substance.smiles>
CNC(=O)Cn1cc(-c2cc3c(N[C@@H](c4ccc5c(c4)S(=O)(=O)CCC5)C(C)C)ncnc3[nH]2)cn1

>  <measured.metric>
Activity

>  <reported.value>
107

$$$$
>  <substance.smiles>
Cn1ncc(-c2cc3c(N[C@@H](c4ccc5c(n4)OCCO5)C(C)(C)C)ncnc3[nH]2)c1C#N

>  <measured.metric>
Activity

>  <reported.value>
125

$$$$
>  <substance.smiles>
COc1ccc([C@H](Cc2nnn[nH]2)NC(=O)c2ncnc3[nH]ccc23)cc1

>  <measured.metric>
Activity

>  <reported.value>
110

$$$$

Note: attention shifts to another entry.
Request: Requested field: Activity. Item: CC(C)[C@H](Nc1ncnc2[nH]c(-c3cnn(C)c3C#N)cc12)c1ccc2c(n1)OCCO2
Response: 119

----------
target: CDK9/cyclin T1 (Homo sapiens) (UniProt O60563+P50750); assay: Enzymatic radiometric [Km ATP] KinaseProfiler LeadHunter assay, kinase: CDK9/cyclin T1, catalogue number: 14-685KP The assay has been performed by Eurofins Discovery.; format: protein-complex assay; conditions: ATP concentration 45.0 uM, Test compound concentration 10.0 uM
measured.metric: Activity (%)
Hi! Could you send only the number? It should be in %, unit omitted.

Guide cases for Activity, answers given:
>  <substance.smiles>
C[C@H](C(=O)O)[C@@H](NC(=O)c1ncnc2[nH]ccc12)c1ccc(Br)cc1

>  <Activity / %>
103

$$$$
>  <substance.smiles>
CC(C)[C@@H](Nc1ncnc2[nH]c(C(=O)N[C@@H]3CCN(C)C3)cc12)c1ccc2c(c1)S(=O)(=O)CCC2

>  <Activity / %>
108

$$$$
>  <substance.smiles>
Cc1nn(C)cc1-c1cc2c(N[C@H](c3ccc4c(c3)S(=O)(=O)CCC4)C(C)C)ncnc2[nH]1

>  <Activity / %>
57

$$$$

Request: Need Activity, item CNCc1cc(-c2cc3c(N[C@@H](c4ccc5c(c4)S(=O)(=O)CCC5)C(C)C)ncnc3[nH]2)co1
Response: 40

Request: Lookup COc1ccc([C@@H](Cc2nnn[nH]2)NC(=O)c2ncnc3[nH]ccc23)cc1
Response: 117

Request: Now give it for CNC(=O)Cn1cc(-c2cc3c(N[C@@H](c4ccc5c(c4)S(=O)(=O)CCC5)C(C)C)ncnc3[nH]2)cn1 too.
Response: 61

----------
molecular target: Ribosomal protein S6 kinase alpha-1 (Homo sapiens) (UniProt Q15418); assay: Enzymatic radiometric [Km ATP] KinaseProfiler LeadHunter assay, kinase: Rsk1, catalogue number: 14-509KP The assay has been performed by Eurofins Discovery.; settings: ATP concentration 45.0 uM, Test compound concentration 10.0 uM
Sequence (Q15418 whole entry): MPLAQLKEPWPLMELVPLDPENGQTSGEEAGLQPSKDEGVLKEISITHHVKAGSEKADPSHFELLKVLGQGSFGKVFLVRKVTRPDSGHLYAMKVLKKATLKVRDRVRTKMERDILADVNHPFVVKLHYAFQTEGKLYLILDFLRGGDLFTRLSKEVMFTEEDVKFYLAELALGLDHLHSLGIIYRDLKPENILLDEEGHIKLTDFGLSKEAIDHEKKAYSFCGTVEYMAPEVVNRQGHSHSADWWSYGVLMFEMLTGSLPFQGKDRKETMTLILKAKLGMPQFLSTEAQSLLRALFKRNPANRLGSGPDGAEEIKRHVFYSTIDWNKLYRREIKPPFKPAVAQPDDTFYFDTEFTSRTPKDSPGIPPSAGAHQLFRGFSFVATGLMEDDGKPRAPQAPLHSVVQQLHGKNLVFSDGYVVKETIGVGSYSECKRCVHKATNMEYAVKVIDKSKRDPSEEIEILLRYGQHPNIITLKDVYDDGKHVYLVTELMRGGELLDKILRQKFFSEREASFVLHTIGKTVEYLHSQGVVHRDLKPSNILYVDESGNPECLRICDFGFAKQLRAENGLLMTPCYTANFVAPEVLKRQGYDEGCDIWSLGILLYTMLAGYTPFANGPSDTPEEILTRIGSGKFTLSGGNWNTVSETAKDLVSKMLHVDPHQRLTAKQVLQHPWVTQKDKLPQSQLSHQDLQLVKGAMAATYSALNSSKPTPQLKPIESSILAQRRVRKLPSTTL
measured.metric: Activity (%)
Supply the numeric figure in %, leaving out any unit text.

Below: 2 molecules and their reported Activity.
>  <substance.smiles>
Cc1nn(C)cc1-c1cc2c(N[C@H](c3ccc4c(c3)S(=O)(=O)CCC4)C(C)C)ncnc2[nH]1

>  <target.or.system>
Ribosomal protein S6 kinase alpha-1 (Homo sapiens) (UniProt Q15418)

>  <units.symbol>
%

>  <Activity>
110

$$$$
>  <substance.smiles>
CC(C)[C@H](Nc1ncnc2[nH]c(-c3cnn(C)c3C#N)cc12)c1ccc2c(n1)OCCO2

>  <target.or.system>
Ribosomal protein S6 kinase alpha-1 (Homo sapiens) (UniProt Q15418)

>  <units.symbol>
%

>  <Activity>
120

$$$$

Please examine the following record next.
Request: Which Activity reading was recorded for the molecule COc1ccc([C@@H](Cc2nnn[nH]2)NC(=O)c2ncnc3[nH]ccc23)cc1 ?
Response: 98
